test readout: melting point
Number first, unit second: that is the form wanted.

Worked cases, melting point given:
C/C=C/c1ccc2nc(OC)c(C(c3ccccc3)C(O)(CCN(C)C)c3cccc4ccccc34)cc2c1 (single isomer, unassigned) [Compound 11]
190 °C
C/C=C/c1ccc2nc(OC)c(C(c3ccccc3)C(O)(CCN(C)C)c3cccc4ccccc34)cc2c1 (single isomer, unassigned) [Compound 12]
189 °C
COc1nc2ccc(/C=N/O)cc2cc1C(c1ccccc1)C(O)(CCN(C)C)c1cccc2ccccc12 (single isomer, unassigned) [Compound 24]
167 °C
COc1nc2ccc(/C=N/O)cc2cc1C(c1ccccc1)C(O)(CCCCN(C)C)c1ccc2ccccc2c1 (single isomer, unassigned)
180 °C

Write down melting point measured for item CO/N=C/c1ccc2nc(OC)c(C(c3ccccc3)C(O)(CCN(C)C)c3cccc4ccccc34)cc2c1 (single isomer, unassigned) [Compound 26] 170 °C

Look up and report measured melting point for this entry: COc1nc2ccc(N)cc2cc1C(c1ccccc1)C(O)(CCN(C)C)c1cccc2ccccc12 (single isomer, unassigned) 205 °C

Please look at this molecule and report its melting point: COc1nc2ccc(C(=O)N3CCN(C)CC3)cc2cc1C(c1ccccc1)C(O)(CCN(C)C)c1cccc2ccccc12 (single isomer, unassigned) 195 °C

Give a short answer stating reported melting point for C=Cc1ccc2nc(OC)c(C(c3ccccc3)C(O)(CCc3ccc(F)cc3)CCN(C)C)cc2c1 (single isomer, unassigned) [Compound 7] . 156 °C

Consider the molecule COc1nc2ccc(C(=O)c3cccc(Br)c3)cc2cc1C(c1ccc(Cl)cc1)C(O)(CCN(C)C)c1ccccc1 (single isomer, unassigned) and give its recorded melting point. 185 °C

State its melting point: CO/N=C/c1ccc2nc(OC)c(C(c3ccccc3)C(O)(CCN(C)C)c3cccc4ccccc34)cc2c1 (single isomer, unassigned) [Compound 25] 228 °C

State, in one line, measured melting point of CC#Cc1ccc2nc(OC)c(C(c3ccccc3)C(O)(CCN(C)C)c3cccc4ccccc34)cc2c1 (single isomer, unassigned) [Compound 13] 100 °C

Please report the measured melting point for COc1nc2ccc(C(=O)c3cccc(Br)c3)cc2cc1C(c1ccccc1)C(O)(CCN(C)C)c1cccc2ccccc12 (centres unmarked) 118 °C

Identify measured melting point associated with C=Cc1ccc2nc(OC)c(C(c3ccccc3)C(O)(CCc3ccc(F)cc3)CCN(C)C)cc2c1 (single isomer, unassigned) [Compound 6] 135 °C

Assign melting point to the following record: COc1nc2ccc(CNC(C)=O)cc2cc1C(c1ccccc1)C(O)(CCN(C)C)c1cccc2ccccc12 (single isomer, unassigned) 203 °C

Provenance of the data: patent US8415475B2
